The origin of these recorded values is patent US10428140B2.

- testedSystem: T1, human EphB4 (Homo sapiens, UniProt P54760)
- T1 construct: a protein of the extracellular region of each human Eph receptor fused with the SEAP protein and the His tag; made in house; host or cells: Expi293F cells
- T1 sequence (P54760 16-539 limits assumed): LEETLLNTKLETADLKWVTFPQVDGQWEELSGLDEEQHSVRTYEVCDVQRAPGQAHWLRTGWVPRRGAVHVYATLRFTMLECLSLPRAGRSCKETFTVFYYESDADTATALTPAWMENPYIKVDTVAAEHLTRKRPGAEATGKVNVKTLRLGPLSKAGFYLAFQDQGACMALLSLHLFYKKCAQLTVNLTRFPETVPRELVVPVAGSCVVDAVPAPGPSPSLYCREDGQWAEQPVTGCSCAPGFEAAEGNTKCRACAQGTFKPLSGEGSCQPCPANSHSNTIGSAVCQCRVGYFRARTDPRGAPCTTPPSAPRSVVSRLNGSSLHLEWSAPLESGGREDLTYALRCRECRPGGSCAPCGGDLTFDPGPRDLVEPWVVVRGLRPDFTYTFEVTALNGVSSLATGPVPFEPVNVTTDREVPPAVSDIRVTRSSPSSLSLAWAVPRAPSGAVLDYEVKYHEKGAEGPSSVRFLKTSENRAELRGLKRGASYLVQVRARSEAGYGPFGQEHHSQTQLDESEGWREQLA
- testName: Selectivity ELISA of humanized antibodies for human Eph receptor
- Type: binding
- conditionParameters: coated protein 1 nM
- Source text: According to the method described in Example 7, a DNA sequence encoding the signal sequence and the extracellular region of each human Eph receptor (EphA1, EphA2, EphA3, EphA4, EphA5, EphA6, EphA7, EphA8, EphA10, EphB1, EphB2, EphB3, EphB4, and EphB6) was amplified by RT-PCR using tissue-derived total RNA and cloned into a pENTR1A vector (Invitrogen/Life Technologies) having a DNA sequence encoding SEAP protein and histidine tag. […]
Hi there, I'd appreciate the recorded hEphB4-SEAP-: absorbance at 450 nm, percentage with respect to hEphA4-SEAP-His as 100% for every entry that follows.
# unit: % | format: bare number

# lookup: hEphB4-SEAP-: absorbance at 450 nm, percentage with respect to hEphA4-SEAP-His as 100% of 138 (antibody, V domains shown, synthetic humanized antibody heavy chain variable region sequence; synthetic humanized antibody light chain variable region sequence) VH: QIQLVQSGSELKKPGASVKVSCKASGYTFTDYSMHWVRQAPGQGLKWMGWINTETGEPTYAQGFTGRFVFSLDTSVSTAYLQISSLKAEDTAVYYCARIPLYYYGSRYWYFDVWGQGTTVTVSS VL: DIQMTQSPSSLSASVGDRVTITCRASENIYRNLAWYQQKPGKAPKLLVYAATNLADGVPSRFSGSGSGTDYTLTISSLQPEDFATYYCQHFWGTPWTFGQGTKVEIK 5.2

What about this molecule? 71 (antibody, V domains shown, synthetic humanized antibody heavy chain variable region sequence; synthetic humanized antibody light chain variable region sequence) VH: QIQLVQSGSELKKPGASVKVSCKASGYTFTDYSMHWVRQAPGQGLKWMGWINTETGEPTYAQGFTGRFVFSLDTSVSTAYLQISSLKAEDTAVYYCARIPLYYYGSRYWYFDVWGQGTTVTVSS VL: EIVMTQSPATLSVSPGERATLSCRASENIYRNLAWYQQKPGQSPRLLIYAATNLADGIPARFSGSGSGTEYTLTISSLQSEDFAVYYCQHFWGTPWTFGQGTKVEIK 5.5
